# Assay target: Human P2Y12 receptor (Homo sapiens, UniProt Q9H244)
# Construct: expressed in transfected cells; host or cells: HEK cells
# Sequence (Q9H244 whole entry): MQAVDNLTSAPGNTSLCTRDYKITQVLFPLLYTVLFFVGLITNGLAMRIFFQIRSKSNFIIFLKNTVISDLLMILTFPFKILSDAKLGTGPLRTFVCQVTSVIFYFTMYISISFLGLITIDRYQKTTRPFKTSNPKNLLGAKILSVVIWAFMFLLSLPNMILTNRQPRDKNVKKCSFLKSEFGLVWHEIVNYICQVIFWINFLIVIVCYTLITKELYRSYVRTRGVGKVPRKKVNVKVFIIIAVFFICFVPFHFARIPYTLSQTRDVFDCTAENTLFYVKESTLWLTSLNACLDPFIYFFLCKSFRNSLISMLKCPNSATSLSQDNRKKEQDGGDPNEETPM
# Procedure details: Human P2Y12 receptor cell membrane binding assay with [3H] 2-Mes-ADP
# Stated conditions: 1 nM [3H] 2-Mes-ADP, membranes of HEK cells expressing P2Y12 receptor; read-out: Binding activity (IC50)
List of log10 IC50 values.
Measured property: log10 IC50 (log10 of the value in nM)

> print(dat)
                                    compound  measured.property  observed.result
 1  CCCc1cc2c(N3CCn4c(nnc4C(F)(F)F)C3)nc(N3CC[C@H](OC(C)=O)C3)nc2s1         log10 IC50             1.81
 2  CCCc1nc2c(N3CCn4c(nnc4C(F)(F)F)C3)nc(N3CCC[C@H](C(=O)OCC)C3)nc2s1         log10 IC50             2.80
 3  CCCc1cc2c(N3CCn4c(nnc4C(F)(F)F)C3)nc(OC3CCN(C)C3)nc2s1 (stereo not shown)         log10 IC50             2.73
 4  CCCc1cc2c(N3CCn4c(nnc4C(F)(F)F)C3)nc(-c3nc(CCOC)no3)nc2s1         log10 IC50             2.52
 5  CCCc1cc2c(N3CCn4c(nnc4C(F)(F)F)C3)nc(OCC3CCCO3)nc2s1 (stereo not shown)         log10 IC50             2.84
 6  CCCc1cc2c(N3CCn4c(nnc4C(F)(F)F)C3)nc(NCCOCC)nc2s1         log10 IC50             2.34
 7  CCCc1cc2c(N3CCn4c(nnc4C(F)(F)F)C3)nc(COc3ccccc3)nc2s1         log10 IC50             2.62
 8  CCCc1cc2c(N3CCn4c(nnc4C(F)(F)F)C3)nc(-c3nnc(CCOC)o3)nc2s1         log10 IC50             2.28
 9  CCCc1cc2c(N3CCn4c(nnc4C(F)(F)F)C3)nc(N3CCC[C@H]3C(=O)O)nc2s1         log10 IC50             2.04
10  CCCc1cc2c(N3CCn4c(nnc4C(F)(F)F)C3)nc(OCc3cccnc3)nc2s1         log10 IC50             2.20
11  CCCc1cc2c(N3CCn4c(C)nnc4C3)nc(N3CCNC(=O)C3)nc2s1         log10 IC50             2.51
12  CCCc1cc2c(N3CCn4c(nnc4C(F)(F)F)C3)nc(N3CC(=NOC)C(N)C3)nc2s1 (stereo not shown)         log10 IC50             2.34
13  CCCc1cc2c(N3CCn4c(nnc4C(F)(F)F)C3)nc(C3=N[C@H](C(=O)OC)CS3)nc2s1         log10 IC50             1.38
14  CCc1cc2c(N3CCc4c(nc(C(F)(F)F)nc4C(F)(F)F)C3)nc(N3CCNC(=O)C3)nc2s1         log10 IC50             3.67
15  CCc1cc2c(N3CCc4c(nc(-c5ccoc5)nc4C(F)(F)F)C3)nc(NCC(O)CO)nc2s1 (stereo not shown)         log10 IC50             3.29
16  CCCc1cc2c(N3CCn4c(nnc4C(F)(F)F)C3)nc(OCCNS(=O)(=O)C(F)(F)F)nc2s1         log10 IC50             2.26
17  CCCc1cc2c(N3CCn4c(nnc4C(F)(F)F)C3)nc(N3CCC(C#N)C3)nc2s1 (stereo not shown)         log10 IC50             1.78
18  CCCc1cc2c(N3CCn4c(nnc4C(F)(F)F)C3)nc(CO)nc2s1         log10 IC50             2.70
19  CCCc1cc2c(N3CCn4c(nnc4C(F)(F)F)C3)nc(C(=O)Nc3ccccc3)nc2s1         log10 IC50             2.81
20  CCCc1cc2c(N3CCn4c(nnc4C(F)(F)F)C3)nc(OCc3nc(CC(=O)OCC)co3)nc2s1         log10 IC50             2.60
21  CCc1cc2c(N3CCn4c(nnc4C(F)(F)F)C3)nc(N[C@@H]3C[C@H](OCCO)[C@@H](O)[C@H]3O)nc2s1         log10 IC50             3.95
22  CCCc1cc2c(N3CCc4c(nc(-c5ccccc5)nc4C(F)(F)F)C3)nc(N3CCNC(=O)C3)nc2s1         log10 IC50             3.65
23  CCCc1cc2c(N3CCn4c(nnc4C(F)(F)F)C3)nc(OCCOC)nc2s1         log10 IC50             2.23
24  CCCc1cc2c(N3CCn4c(nnc4C(F)(F)F)C3)nc(-c3nnc(Cc4ccccc4)o3)nc2s1         log10 IC50             1.46
25  CCCc1cc2c(N3CCn4c(nnc4C(F)(F)F)C3)nc(N3CCN(C(=O)C(F)(F)F)CC3)nc2s1         log10 IC50             4.16
26  CCc1cc2c(N3CCn4c(nnc4C(F)(F)C(F)(F)F)C3)nc(NCC(O)CO)nc2s1 (stereo not shown)         log10 IC50             3.08
27  CCc1cc2c(N3CCn4c(nnc4C(F)(F)F)C3)nc(CO)nc2s1         log10 IC50             3.18
28  CCCc1cc2c(N3CCn4c(nnc4C(F)(F)F)C3)nc(N3CC[C@H](C(=O)NC)C3)nc2s1         log10 IC50             1.83
29  CCCc1cc2c(N3CCn4c(nnc4C(F)(F)F)C3)nc(Oc3ccc(CCC(=O)OC)cc3)nc2s1         log10 IC50             2.59
30  CCCc1cc2c(N3CCn4c(nnc4C(F)(F)F)C3)nc(Oc3ccc(CCC(=O)O)cc3)nc2s1         log10 IC50             2.40
31  CCCc1cc2c(N3CCn4c(nnc4C(F)(F)F)C3)nc(N(CCO)CCO)nc2s1         log10 IC50             2.16
